Please provide measured DC50 for the entries that follow.
test_system: BRM (Homo sapiens)
Construct: In-Cell Western Screen of BRM Degradation in SW1573 Cells; endogenous in cells; host or cells: SW1573
assay_overview: In-cell Western screen of BRM degradation in SW1573 cells (Dmax and DC50)
Assay type: cell-based
condition_description: BRM degradation; read-out: BRM DC50

### Prompt Given Cc1ncsc1-c1ncc([C@H](C)NC(=O)[C@@H]2C[C@@H](O)CN2C(=O)C(c2cc(OCCN3CCC(O[C@H]4C[C@H](Oc5cc(N6C7CCC6CN(c6cc(-c8ccccc8O)nnc6N)C7)ccn5)C4)CC3)no2)C(C)C)cc1F (stereo partly shown) [compound 500] , respond with its DC50.
### Response > 30 nM

### Prompt Specify reported DC50 for the molecule shown: Cc1ncsc1-c1ccc([C@H](C)NC(=O)[C@@H]2C[C@@H](O)CN2C(=O)[C@H](c2cc(N3CC(CN4CC(COc5cc(N6C7CCC6CN(c6cc(-c8ccccc8O)nnc6N)C7)ccn5)C4)C3)no2)C(C)C)cc1 [compound 518]
### Response > 30 nM

### Prompt For Cc1cc([C@@H](C(=O)N2C[C@H](O)C[C@H]2C(=O)N[C@@H](C)c2ccc(-c3scnc3C)cc2)[C@H](C)COCCOc2cc(N3C4CCC3CN(c3cc(-c5ccccc5O)nnc3N)C4)ccn2)on1 [compound 513] , write its DC50.
### Response > 30 nM

### Prompt Please give measured DC50 of the following entry: Cc1ncsc1-c1ccc([C@H](C)NC(=O)[C@@H]2C[C@@H](O)CN2C(=O)[C@@H](NC(=O)CN2CCC(OC3CC(Oc4cc(N5C6CC[C@@H]5CN(c5cc(-c7ccccc7O)nnc5N)C6)ccn4)C3)CC2)C(C)(C)C)cc1 (stereo partly shown) [compound 520]
### Response < 2.5 nM

###

test_system: BRM (Homo sapiens)
Construct: In-Cell Western Screen of BRM Degradation in SW1573 Cells; endogenous in cells; host or cells: SW1573
assay_overview: In-cell Western screen of BRM degradation in SW1573 cells (Dmax and DC50)
Format: cell-based
condition_description: BRM degradation, SW1573 cells; read-out: Dmax (% degraded)
assay_readout: Dmax

### Prompt For the compound Cc1ncsc1-c1ccc([C@H](C)NC(=O)[C@@H]2C[C@@H](O)CN2C(=O)[C@@H](c2cc(N3CCC(CN4CCC(O[C@H]5C[C@H](Oc6cc(/C=C/c7cc(-c8ccccc8O)nnc7N)ccn6)C5)CC4)CC3)no2)C(C)C)cc1 , give its reported Dmax.
### Response > 75%

### Prompt Report Dmax for Cc1ncsc1-c1ccc([C@H](C)NC(=O)[C@@H]2C[C@@H](O)CN2C(=O)[C@H](c2cc(N3CCN(C(C)[C@H]4C[C@H](Oc5cc(N6C7CCC6CN(c6cc(-c8ccccc8O)nnc6N)C7)ccn5)C4)CC3)no2)C(C)C)cc1 (some centres unmarked)
### Response > 75%

###

test_system: BRM (Homo sapiens, UniProt P51531)
Construct: In-Cell Western Screen of BRM Degradation in SW1573 Cells; endogenous in cells; host or cells: SW1573
Sequence (P51531 whole entry): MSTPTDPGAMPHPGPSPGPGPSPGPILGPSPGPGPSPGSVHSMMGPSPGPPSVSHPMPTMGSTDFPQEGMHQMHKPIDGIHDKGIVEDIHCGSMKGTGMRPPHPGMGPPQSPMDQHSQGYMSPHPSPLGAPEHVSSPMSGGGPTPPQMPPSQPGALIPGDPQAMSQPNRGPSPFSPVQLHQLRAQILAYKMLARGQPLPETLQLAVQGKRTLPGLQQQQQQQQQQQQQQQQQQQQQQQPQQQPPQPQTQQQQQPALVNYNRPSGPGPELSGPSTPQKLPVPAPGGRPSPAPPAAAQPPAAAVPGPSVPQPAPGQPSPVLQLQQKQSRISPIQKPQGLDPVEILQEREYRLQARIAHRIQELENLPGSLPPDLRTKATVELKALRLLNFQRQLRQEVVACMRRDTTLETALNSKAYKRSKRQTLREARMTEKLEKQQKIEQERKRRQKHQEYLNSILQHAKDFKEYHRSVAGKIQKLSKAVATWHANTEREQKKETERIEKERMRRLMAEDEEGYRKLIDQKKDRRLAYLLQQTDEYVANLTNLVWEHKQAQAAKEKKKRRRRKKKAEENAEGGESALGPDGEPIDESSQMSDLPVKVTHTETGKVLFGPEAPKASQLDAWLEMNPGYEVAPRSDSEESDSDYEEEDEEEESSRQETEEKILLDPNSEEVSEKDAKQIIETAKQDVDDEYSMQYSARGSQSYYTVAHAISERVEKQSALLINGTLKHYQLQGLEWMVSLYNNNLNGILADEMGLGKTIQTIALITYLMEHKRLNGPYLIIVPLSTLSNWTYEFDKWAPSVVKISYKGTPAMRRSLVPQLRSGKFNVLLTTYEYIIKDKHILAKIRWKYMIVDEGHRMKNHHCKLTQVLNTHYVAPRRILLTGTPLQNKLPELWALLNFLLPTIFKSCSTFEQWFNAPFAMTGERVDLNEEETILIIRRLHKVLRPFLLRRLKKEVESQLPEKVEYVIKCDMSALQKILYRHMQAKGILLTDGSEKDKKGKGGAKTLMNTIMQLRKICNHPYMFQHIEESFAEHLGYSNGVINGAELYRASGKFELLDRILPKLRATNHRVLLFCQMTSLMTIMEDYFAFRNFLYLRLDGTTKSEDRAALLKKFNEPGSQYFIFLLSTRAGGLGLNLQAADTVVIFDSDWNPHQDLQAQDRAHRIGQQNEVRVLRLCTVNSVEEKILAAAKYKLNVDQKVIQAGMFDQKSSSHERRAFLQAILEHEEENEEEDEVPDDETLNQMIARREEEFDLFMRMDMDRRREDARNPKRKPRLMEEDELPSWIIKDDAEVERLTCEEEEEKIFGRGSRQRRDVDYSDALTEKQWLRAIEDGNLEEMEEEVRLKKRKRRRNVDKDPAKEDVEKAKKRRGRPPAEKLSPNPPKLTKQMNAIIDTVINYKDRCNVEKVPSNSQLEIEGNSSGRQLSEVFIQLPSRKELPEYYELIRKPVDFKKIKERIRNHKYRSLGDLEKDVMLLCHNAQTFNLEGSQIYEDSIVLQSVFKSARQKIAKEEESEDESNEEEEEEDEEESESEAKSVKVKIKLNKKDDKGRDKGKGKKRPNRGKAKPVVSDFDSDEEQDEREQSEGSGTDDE
assay_overview: In-cell Western screen of BRM degradation in SW1573 cells (Dmax and DC50)
Format: cell-based
condition_description: BRM degradation, SW1573 cells; Table 2D; read-out: *DC50
assay_readout: DC50

### Prompt Answer with reported DC50 of Cc1ncsc1-c1ccc([C@H](C)NC(=O)[C@@H]2C[C@@H](O)CN2C(=O)[C@H](c2cc(OCC[C@H]3CCN(C[C@H]4C[C@H](Oc5cc(N6C7CCC6CN(c6cc(-c8ccccc8O)nnc6N)C7)ccn5)C4)[C@@H](C)[C@H]3C)no2)C(C)C)cc1 (single isomer, unassigned)
### Response 2.5 to 10 nM

### Prompt Give DC50 for the following compound: Cc1ncsc1-c1ccc([C@H](C)NC(=O)[C@@H]2C[C@@H](O)CN2C(=O)[C@@H](c2cc(N3CC(COCCOc4cc(N5C6CCC5CN(c5cc(-c7ccccc7O)nnc5N)C6)ccn4)C3)no2)C(C)C)cc1
### Response < 2.5 nM

### Prompt Answer with the recorded DC50 of Cc1ncsc1-c1ccc([C@@H](NC(=O)[C@@H]2C[C@@H](O)CN2C(=O)[C@@H](c2cc(N3CCC(CN4CCC(O[C@H]5C[C@H](Oc6cc(N7C8CCC7CN(c7cc(-c9ccccc9O)nnc7N)C8)ccn6)C5)CC4)CC3)no2)C(C)C)C(F)F)cc1 only.
### Response < 2.5 nM

### Prompt Specify DC50 for Cc1ncsc1-c1ccc([C@H](C)NC(=O)[C@@H]2C[C@@H](O)CN2C(=O)[C@H](c2cc(OCCCOc3cc(N4C5CCC4CN(c4cc(-c6ccccc6O)nnc4N)C5)ccn3)no2)C(C)C)cc1 and stop.
### Response > 30 nM

### Prompt Assign DC50 to the following record: Cc1cc([C@@H](C(=O)N2C[C@H](O)C[C@H]2C(=O)N[C@@H](C)c2ccc(-c3scnc3C)cc2)[C@H](C)COCCCCn2cc(-c3cc(-c4ccccc4O)nnc3N)cn2)on1
### Response > 30 nM

### Prompt Give the reported value of DC50 for this record: Cc1ncsc1-c1ccc([C@H](C)NC(=O)[C@@H]2C[C@@H](O)CN2C(=O)[C@H](c2cc(OCC[C@@H]3CCN(C[C@H]4C[C@H](Oc5cc(N6C7CCC6CN(c6cc(-c8ccccc8O)nnc6N)C7)ccn5)C4)[C@H](C)C3)no2)C(C)C)cc1 (racemic)
### Response < 2.5 nM

### Prompt Input Cc1nccn1-c1ccc([C@H](C)NC(=O)[C@@H]2C[C@@H](O)CN2C(=O)[C@@H](c2cc(OCCN3CCN(CCOc4cc(N5C6CCC5CN(c5cc(-c7ccccc7O)nnc5N)C6)ccn4)C[C@@H]3C)no2)C(C)C)cc1 , output reported DC50.
### Response < 2.5 nM

### Prompt Please give measured DC50 of the following entry: Cc1ncsc1-c1ccc([C@H](C)NC(=O)[C@@H]2C[C@@H](O)CN2C(=O)[C@H](c2cc(OCC[C@@H]3CCN(C[C@H]4C[C@H](Oc5cc(N6C7CCC6CN(c6cc(-c8ccccc8O)nnc6N)C7)ccn5)C4)[C@H](C)[C@@H]3C)no2)C(C)C)cc1 (single isomer, unassigned)
### Response > 30 nM

Data origin, for the record: patent US12539292B2
